- System: primary human hepatic stellate cells (donor 1)
- METHOD: scaled lipid accumulation score (0 = DMSO-like, 1 = nortriptyline-like); higher = stronger HSC inactivation (lipid re-accumulation), active = hit call of the paper
- TEST CONDITIONS: library stock concentration: 3.33 mM; 48 h
Where a name gives a salt, the structure may show the parent alone. Hit rate of the full screen: of about 5,800 compounds, about 620 (11%) showed activity.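 Rule for the calls: active = score above a cut-off or among the top three wells of a plate; in these data no inactive exceeds 0.85.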 For the sample, actives were picked, then their nearest neighbours and some compounds at random.
Labels: class 1 for active, class 0 for inactive

INSERT INTO measurements (compound, assigned_class) VALUES
  ('C[C@@H](Oc1cc(-c2cnn(C3CCNCC3)c2)cnc1N)c1c(Cl)ccc(F)c1Cl', 'class 1'),
  ('CN1CCC(=C2c3ccccc3CCc3cccnc32)CC1 [Azatadine dimaleate]', 'class 0'),
  ('CN(C)CCCn1cc(C2=C(c3c[nH]c4ccccc34)C(=O)NC2=O)c2ccccc21 [Bisindolylmaleimide I]', 'class 0'),
  ('Cc1ccc2nc(NC(=O)CSc3nc4c(c(=O)n3-c3ccccc3)SCC4)sc2c1', 'class 0'),
  ('Cn1sc(=O)n(Cc2ccccc2)c1=O [GSK-3b Inhibitor I]', 'class 0'),
  ('CN[C@H]1CC[C@@H](c2ccc(Cl)c(Cl)c2)c2ccccc21 [Sertraline HCl]', 'class 0'),
  ('O=C1NC(=O)C(=Cc2ccc(-c3ccc(F)cc3)o2)S1 (stereo in doubt)', 'class 0'),
  ('O=C(NCc1ccccc1)c1csc(Nc2ccncn2)n1 [Thiazovivin]', 'class 0'),
  ('COc1ccc(F)c(F)c1C(=O)c1cnc(NC2CCN(S(C)(=O)=O)CC2)nc1N', 'class 0'),
  ('CC(C)c1ccc(NC(=O)Cn2cnc3c2c(=O)n(C)c(=O)n3C)cc1', 'class 0'),
  ('CN(C)CCCn1cc(C2=C(c3c[nH]c4ccccc34)C(=O)NC2=O)c2ccccc21', 'class 0'),
  ('C=C1/C(=C\C=C2/CCC[C@]3(C)[C@@H]([C@H](C)CCCC(C)C)CC[C@@H]23)C[C@@H](O)C[C@@H]1O [Alfacalcidol]', 'class 0'),
  ('CCCCC(F)(F)[C@@]1(O)CC[C@H]2[C@@H](CC(=O)[C@@H]2CCCCCCC(=O)O)O1 [Lubiprostone]', 'class 0'),
  ('C=CCc1ccc(O)c(-c2ccc(O)c(CC=C)c2)c1 [Honokiol]', 'class 0'),
  ('CN(C)CCCN1c2ccccc2CCc2ccc(Cl)cc21 [Clomipramine HCl]', 'class 0');

---

- Tested on: primary human hepatic stellate cells (donor 1)
- METHOD: scaled lipid accumulation score (0 = DMSO-like, 1 = nortriptyline-like); higher = stronger HSC inactivation (lipid re-accumulation), active = hit call of the paper
- TEST CONDITIONS: library stock concentration: 80 uM; 48 h
Hit rate of the full screen: of about 5,800 compounds, about 620 (11%) showed activity. The list comes from a sample in which actives are over-represented; it also holds close analogues and randomly drawn compounds.
Reported scaled lipid accumulation score is given for each of the following compounds.
OBSERVED PROPERTY: scaled lipid accumulation score

INSERT INTO assay_data (compound, observed_value) VALUES
  ('COc1cc(C(=O)NC2CCN(C)CC2)ccc1Nc1ncc2c(n1)N(C1CCCC1)C(C)CC(=O)N2C (stereo unspecified)', '≤ 0 (inactive)'),
  ('CN(C)C/C=C/C(=O)Nc1ccc(C(=O)Nc2cccc(Nc3ncc(Cl)c(-c4c[nH]c5ccccc45)n3)c2)cc1', '0.587 (inactive)'),
  ('CS(=O)(=O)CCNCc1ccc(-c2ccc3ncnc(Nc4ccc(OCc5cccc(F)c5)c(Cl)c4)c3c2)o1', '≤ 0 (inactive)'),
  ('COc1ccc2nc3n[nH]c(C)c3c(NCCOCCO)c2c1', '≤ -0.001 (inactive)'),
  ('N#CCNC(=O)c1ccc(-c2ccnc(Nc3ccc(N4CCOCC4)cc3)n2)cc1', '≤ -0.009 (inactive)'),
  ('Cc1cc(Nc2ncc(Cl)c(Nc3ccccc3S(=O)(=O)C(C)C)n2)c(OC(C)C)cc1C1CCNCC1', '0.312 (inactive)'),
  ('COc1cc(N2CCC(N3CCN(C)CC3)CC2)ccc1Nc1ncnc(Nc2ccccc2S(=O)(=O)C(C)C)n1', '≤ 0 (inactive)'),
  ('CCCCCCCCCCCCCCCCn1cc[n+](Cc2ccccc2)c1C', '≤ -0.001 (inactive)'),
  ('Cc1ccc(Nc2cc(-c3cccc(N4C(=O)c5ccccc5C4=O)c3)ncn2)cc1NS(C)(=O)=O', '0.083 (inactive)'),
  ('CC[C@@H]1C(=O)N(C)c2cnc(Nc3ccc(C(=O)N[C@H]4CC[C@H](N5CCN(CC6CC6)CC5)CC4)cc3OC)nc2N1C(C)C', '0.154 (inactive)'),
  ('COCCOc1ccc2c(c1)ncn2-c1ccc2cccc(N3CCC(N)CC3)c2n1', '≤ 0 (inactive)');
